- System under test: human ether-à-go-go-related gene (hERG) potassium channel (human);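 also: peak tail current of the secondary pulse compared with the same well before compound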
- Sequence (Q12809 whole entry, looked up): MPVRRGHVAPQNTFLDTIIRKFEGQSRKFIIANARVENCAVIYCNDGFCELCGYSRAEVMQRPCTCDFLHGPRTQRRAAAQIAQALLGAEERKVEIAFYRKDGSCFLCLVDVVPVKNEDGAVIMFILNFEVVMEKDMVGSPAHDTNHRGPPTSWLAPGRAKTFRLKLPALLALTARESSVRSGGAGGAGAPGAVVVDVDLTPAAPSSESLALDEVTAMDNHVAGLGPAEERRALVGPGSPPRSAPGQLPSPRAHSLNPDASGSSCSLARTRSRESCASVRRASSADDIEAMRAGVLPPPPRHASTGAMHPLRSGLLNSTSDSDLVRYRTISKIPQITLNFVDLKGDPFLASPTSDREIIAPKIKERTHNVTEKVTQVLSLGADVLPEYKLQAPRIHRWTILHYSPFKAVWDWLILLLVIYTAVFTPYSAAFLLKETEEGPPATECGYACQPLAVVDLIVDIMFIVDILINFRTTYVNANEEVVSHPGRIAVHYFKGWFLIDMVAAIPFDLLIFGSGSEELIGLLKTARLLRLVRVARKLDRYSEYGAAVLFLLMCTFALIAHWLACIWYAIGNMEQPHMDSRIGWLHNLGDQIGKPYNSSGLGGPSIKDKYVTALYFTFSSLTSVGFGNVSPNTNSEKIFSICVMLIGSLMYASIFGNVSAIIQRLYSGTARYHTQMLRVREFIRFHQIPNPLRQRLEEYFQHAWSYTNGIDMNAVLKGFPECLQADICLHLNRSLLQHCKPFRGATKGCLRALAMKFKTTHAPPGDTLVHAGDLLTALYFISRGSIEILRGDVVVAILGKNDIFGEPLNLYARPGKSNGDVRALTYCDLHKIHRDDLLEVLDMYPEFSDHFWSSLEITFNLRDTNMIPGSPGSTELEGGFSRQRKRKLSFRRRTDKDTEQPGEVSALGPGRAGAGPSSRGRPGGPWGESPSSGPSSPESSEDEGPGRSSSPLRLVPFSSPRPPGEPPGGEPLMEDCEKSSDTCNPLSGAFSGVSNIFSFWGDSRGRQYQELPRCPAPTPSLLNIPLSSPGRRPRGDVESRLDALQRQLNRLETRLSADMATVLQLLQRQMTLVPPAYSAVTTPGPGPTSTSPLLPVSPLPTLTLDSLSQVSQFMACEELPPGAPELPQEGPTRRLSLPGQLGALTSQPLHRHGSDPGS
- Run description: primary screen, population patch clamp on CHO cells stably expressing hERG; higher = less effect of the substance
Out of some 310,000 compounds screened, about 14,000 (4.5%) showed an effect of 50% or more. The effect is printed as a negative number. Many of the other results were omitted from the sample, so strong results are more common in it than they were.
Measure: hERG current change (%, negative = inhibition) at 10uM (%)
Answers are plain numbers, in %.

What hERG current change (%, negative = inhibition) at 10uM value was documented for this molecule, "Cc1cc(-c2nnc(CSc3nnc(NC(=O)c4ccc(C(C)(C)C)cc4)s3)o2)ccc1[N+](=O)[O-]" ?
4.92

Could you tell me hERG current change (%, negative = inhibition) at 10uM for each of these molecules? They are listed below.
1. Cc1ccc(-c2cc(-c3ccc(C)cc3)[n+](-c3ccc(C(=O)[O-])cc3)c(-c3ccc(C)cc3)c2)cc1
2. c1ccc(-c2nn[nH]n2)nc1
3. Cc1ccc(-n2cc(CNCC3CC(=O)N(C4CC4)C3)c(-c3cccc(C)c3)n2)cc1 (centres unmarked)
4. Cc1cccc(C)c1OCC(O)CNS(=O)(=O)c1ccccc1C(=O)N1CCCCC1 (centres unmarked)
5. CC1CCN(S(=O)(=O)c2cccc(C(=O)Nc3ccccn3)c2)CC1

1. -26.8
2. 9.49
3. -71.9
4. -10.9
5. -22.1
